The compounds listed here are annotated with their Average % Control AI.
System: Sweet Potato Whitefly (Bemisia tabaci, BEMITA)
Assay: Bioassay 2: Sweet Potato Whitefly, spray on cotton seedlings at crawler emergence, nymphs counted 7-9 days after treatment
Format: in vivo
Settings: AI alone 1 (10-5) % w/v
State the answer as a number, implicitly in %.

COMPOUND | TARGET | Average % Control AI [%]
CC1(C)[C@H](C(=O)O[C@H](C#N)c2cccc(Oc3ccccc3)c2)[C@@H]1/C=C(\Cl)C(F)(F)F (racemic) | Sweet Potato Whitefly (Bemisia tabaci, BEMITA) | 27

Reported Average % Control AI of C[C@]1(COC(=O)C2CC2)[C@@H]2C[C@H](O)[C@@]3(C)Oc4cc(-c5cccnc5)oc(=O)c4[C@H](O)[C@@H]3[C@@]2(C)CC[C@@H]1OC(=O)C1CC1 : 0

Reported Average % Control AI of Cc1c(COC(=O)[C@@H]2[C@H](/C=C(\Cl)C(F)(F)F)C2(C)C)cccc1-c1ccccc1 (racemic) : 40

Reported Average % Control AI of C/C(=N\C#N)N(C)Cc1ccc(Cl)nc1 : 29
